Sequence of the target: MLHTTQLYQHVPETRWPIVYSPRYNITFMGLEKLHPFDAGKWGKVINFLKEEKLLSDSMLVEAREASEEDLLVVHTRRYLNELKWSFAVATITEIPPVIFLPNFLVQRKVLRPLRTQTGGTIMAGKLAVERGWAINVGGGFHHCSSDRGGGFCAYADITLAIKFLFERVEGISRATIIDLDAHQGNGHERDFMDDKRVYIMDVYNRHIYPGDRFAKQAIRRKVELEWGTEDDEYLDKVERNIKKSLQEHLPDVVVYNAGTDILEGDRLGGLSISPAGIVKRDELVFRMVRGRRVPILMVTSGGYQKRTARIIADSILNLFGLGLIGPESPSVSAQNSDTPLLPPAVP
ASSAY_METRIC: pIC50
Please keep in mind that pIC50 is minus log10 of the molar concentration; only the number is needed.

Data request: Given the molecule O=C(/C=C/c1cccc(S(=O)(=O)N[C@H](C(=O)Nc2cccc3ccccc23)c2ccccc2)c1)NO , what is its reported pIC50?
Data returned: 5.41
